- System: HCT-116 colon
- assay remarks: NCI-60 one-dose screen, 48 h
- condition label: 10 µM unless noted
- Method: Growth inhibition of the HCT-116 human tumor cell line is measured as a screen for anti-cancer activity. Cells are grown in 96 well plates and exposed to the test compound for 48 hours. Compounds are tested at a single concentration, which is 10^-5 M for most compounds. The reported endpoint is percent growth (GI% or GIPRCNT), where numbers from 0 - 100% represent growth inhibition, and numbers from -100% - 0 represent cell death. For example, a value of 40 represents 60% growth inhibition. […]
This is part of a sample that, as a whole, favours compounds with a hit. Of some 83,000 tested, about 20% had one in any assay. Active and inactive are the calls of the source. How the source made its calls: active means growth percent below 10; inactive means the rest.
Labels: active, inactive

compound	class name
COc1cc(NC(C)CCCNC(C)C)c2ncccc2c1OC (stereo not given)	inactive
CN(C)CCNC(=O)c1cccc(-c2cnc3ccc(-c4ccc5c(c4)OCO5)nn23)c1	active
CCc1nc2c(=O)[nH]cnc2o1	inactive
CCn1c(SCC(=O)c2ccc(Br)cc2)nnc1-c1ccncc1	inactive
Cn1cc(-c2csc(-c3ccc(Cl)cc3)n2)c2cccnc21	active
CC1(C)c2[nH]c3ccccc3c2C[C@]2(C)[C@H]3CC=C4[C@@H]5C[C@@](C)(C(N)=O)CC[C@]5(C)CC[C@@]4(C)[C@]3(C)CC[C@@H]12	inactive
Cc1cc(Cl)ccc1Nc1nc(C(F)(F)F)ccc1C(=O)N/N=C/c1ccc([N+](=O)[O-])cc1	active
C1=C(N2CCCC2)CCC1	inactive
CCC(C)N(c1ccc(Cl)cc1)c1nc(-c2ccc(Br)cc2)cs1 (stereo not given)	inactive
COC(=O)CNC(=O)[C@H](Cc1ccccc1)NCc1ccncc1	inactive

====

- Tested on: SF-539 CNS
- assay remarks: NCI-60 one-dose screen, 48 h
- condition label: 10 µM unless noted
This is part of a sample that, as a whole, favours compounds with a hit. Of some 83,000 tested, about 20% had one in any assay. Activity calls are given as the source filed them. The calls were made as follows: active = growth percent below 10; inactive = the rest.
Labels: active, inactive

compound	experimental system	class name
CC(C)c1ccc(COCc2cc(CN3CCCC3)c(O)c3ncccc23)cc1	SF-539 CNS	active
CCCCCCCCn1ccc2cc(NC(=O)CN3CCN(c4nc(C)cc(Cl)n4)CC3)ccc21	SF-539 CNS	inactive
CSc1nc2sc3c(c2c(=O)n1-c1ccc([N+](=O)[O-])cc1)CCCCC3	SF-539 CNS	inactive
CCOP(=O)(OCC)c1nc(-c2ccccc2)oc1NCc1cccnc1	SF-539 CNS	inactive
Nc1nc2c([nH]1)c1[nH]c3ccccc3c1c1[nH]c3ccccc3c21	SF-539 CNS	inactive
COc1ccc2c(c1)[n+]([O-])c(C(=O)/C=C/C=C(\Cl)c1cc(OC)c(OC)c(OC)c1)c(C)[n+]2[O-]	SF-539 CNS	inactive
N#Cc1c(-c2cccs2)cc(-c2cccnc2)[nH]c1=O	SF-539 CNS	inactive
CCCCC[C@@H]1Cc2cc(O)c(C(=O)O)c3c2[C@H](C[C@]2(OC[C@@H](CC(=O)[C@@](C)(CC)C(=O)OC)[C@@H]2C)O3)O1	SF-539 CNS	inactive
CCN1CCN(c2cc(C(=O)Nc3nc(-c4cc(OC)c(OC)c(OC)c4)cs3)cc(C(F)(F)F)c2)CC1	SF-539 CNS	inactive
COC(=O)c1n[nH]c2ccc3nc(-c4cn[nH]c4C(F)(F)F)c4c(c3c12)CCCC4	SF-539 CNS	inactive
CCOC(=O)c1c(C)c2c(n1C)CSc1cc(C(=O)c3ccccc3)c(=O)[nH]c1-2	SF-539 CNS	inactive
COC(C(=O)[C@@H](O)[C@@H](C)O)[C@@H]1Cc2cc3cc(O[C@H]4C[C@@H](O[C@H]5C[C@@H](O)[C@H](O)C(C)O5)[C@H](O)C(C)O4)cc(O)c3c(O)c2C(=O)[C@H]1O[C@H]1C[C@@H](O[C@H]2C[C@@H](O[C@H]3C[C@@H](OC)[C@H](O)C(C)O3)[C@@H](O)C(C)O2)[C@H](O)C(C)O1 (stereo not given in full)	SF-539 CNS	inactive
COC(=O)[C@H]1CCCN1C[C@@H](O)CN1C(=O)/C(=C\c2cc(OC)c(OC)c(OC)c2)c2ccccc21	SF-539 CNS	inactive
Cn1c(=O)c2c(nc(NC3=NS(=O)(=O)c4ccccc43)n2CC(=O)N2CCc3ccccc32)n(C)c1=O	SF-539 CNS	inactive
COc1ccc(C(=S)N2CCN(c3ccccc3Cl)CC2)cc1OC	SF-539 CNS	inactive
Cc1ccccc1/C=C1\CN(C(=O)OC(C)(C)C)C/C(=C\c2ccccc2C)C1=O	SF-539 CNS	inactive
CC(=O)[C@@H]1CCC=C2CC[C@]3(C)[C@@H](CC[C@@H]4[C@@]5(C)CCCNC(C)(C)[C@@H]5CC[C@]43C)[C@H]21	SF-539 CNS	active
O=C1c2c(c3c4ccccc4[nH]c3c3ccc4ccccc4c23)C(=O)N1CCN1CCCCC1	SF-539 CNS	inactive
CCCCNc1ccc(C#N)c(OCCN(CC)CC)c1	SF-539 CNS	inactive
CS(=O)(=O)C1=CN(CCO)C(=O)N2CCCN=C12	SF-539 CNS	inactive
N=C(N)c1ccc(-c2ccc(-c3ccc(F)cc3)o2)o1	SF-539 CNS	inactive
CC1=Nc2cnc(Nc3ccc(OCCN4CCCC4)cc3)nc2Nc2ccccc21	SF-539 CNS	inactive
C=C(C)[C@@H]1CC[C@]2(C(=O)OC)CC[C@]3(C)[C@H](CC[C@@H]4[C@@]5(C)C/C(=C/NC(N)=S)C(=O)C(C)(C)[C@@H]5CC[C@]43C)[C@@H]12	SF-539 CNS	inactive
CCOC(=O)C(=Cc1cccc(Cl)c1)C(=O)OCC	SF-539 CNS	active
COc1ccc(/C=C2\COc3ccc(O)cc3C2=O)c(OC)c1OC	SF-539 CNS	inactive
Cc1ccc(Sc2oc(-c3ccc(C)cc3)nc2[P+](c2ccccc2)(c2ccccc2)c2ccccc2)cc1	SF-539 CNS	active
Cc1ccc(-c2nc(/C=C3/C(=O)Nc4ccccc43)c3ccccn23)cc1	SF-539 CNS	inactive
Nc1ncnc2c1N=C(c1ccc(Cl)cc1)CC(c1ccc3c(c1)OCO3)N2 (stereo not given)	SF-539 CNS	inactive
COc1cc(OC)cc(C2=C3CC[C@@H]4[C@H](CC[C@]5(C)C(=O)CC[C@@H]45)C3=CC3C(O)c4cccnc4N4C(=O)COC234)c1 (stereo not given in full)	SF-539 CNS	inactive
N#Cc1cccc(-c2c(-c3ccc4ccccc4c3)oc3ccccc3c2=O)c1	SF-539 CNS	inactive
Oc1c(Cl)cc(Cl)c2ccc(Cn3cc(-c4ccc(C(F)(F)F)cc4)nn3)nc12	SF-539 CNS	inactive
Cc1nc2sc(C(=O)Nc3ccccc3)c(N)c2cc1C(=O)c1ccccc1	SF-539 CNS	inactive
CN(C)CCNc1nc2c3cc(Cl)ccc3nn2c2ccccc12	SF-539 CNS	inactive
O=S(=O)(NCCNc1nccc(-c2c(-c3cccc(F)c3)nc3occn23)n1)c1ccc(Br)cc1	SF-539 CNS	inactive
C=C(C)[C@@H]1CC[C@]2(C(=O)N3CCN(C)CC3)CC[C@]3(C)[C@H](CC[C@@H]4[C@@]5(C)CC(=C/c6ccncc6)/C(=N/O)C(C)(C)[C@@H]5CC[C@]43C)[C@@H]12	SF-539 CNS	inactive

Recorded values, source PubChem BioAssay (NCI).
